Measured ka values are reported for all entries that follow.
# Study System: T1, human ENTPD2 (Homo sapiens, UniProt Q9Y5L3)
# T1 construct: residues 29-462 of human or cyno ENTPD2 were cloned into expression vector; GP67 signal peptide (N); made in house; host or cells: High Five (Trichoplusia ni) insect cells, baculovirus
# T1 sequence (Q9Y5L3 29-462): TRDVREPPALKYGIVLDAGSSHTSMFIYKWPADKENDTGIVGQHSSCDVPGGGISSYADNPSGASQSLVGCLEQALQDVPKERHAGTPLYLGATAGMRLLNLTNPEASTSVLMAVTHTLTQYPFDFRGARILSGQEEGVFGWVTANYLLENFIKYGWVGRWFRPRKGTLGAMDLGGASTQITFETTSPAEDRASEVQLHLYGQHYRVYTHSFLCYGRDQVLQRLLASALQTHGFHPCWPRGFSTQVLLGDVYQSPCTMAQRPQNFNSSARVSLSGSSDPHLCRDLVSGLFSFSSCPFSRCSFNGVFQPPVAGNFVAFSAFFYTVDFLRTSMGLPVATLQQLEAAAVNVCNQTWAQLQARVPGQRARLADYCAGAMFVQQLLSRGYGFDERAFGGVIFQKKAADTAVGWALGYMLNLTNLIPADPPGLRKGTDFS
# Test Summary: Biacore (SPR) affinity to human ENTPD2 ECD
# Format: binding
# Condition Set: 25° C.
Number in M⁻¹ s⁻¹, nothing else.

Molecule	Unit Name	ka
mAb5: humanized anti-human ENTPD2 antibody from mAb16; VH SEQ ID NO: 46, VL SEQ ID NO: 64 (antibody, V domains shown) VH: QIQLQESGPGLVKPSQTLSLTCTVSGYSITSGYYWNWIRQHPGKGLEWIGYISYDADNNYNPSLKNRVTISRDTSKNQFSLKLSSVTAADTAVYYCAGGYYRYGLGSYRGSYYYVMDYWGQGTTVTVSS VL: ETVLTQSPATLSVSPGERATISCKASQSVDYDGNSYMNWYQQKPGQAPRLLIYAASNLESGIPARFSGSGSGTDFTLTISSVEPEDAATYYCQQSNEDPPTFGGGTKLEIK	M⁻¹ s⁻¹	270000
mAb4: humanized anti-human ENTPD2 antibody from mAb16; VH SEQ ID NO: 46, VL SEQ ID NO: 57 (antibody, V domains shown) VH: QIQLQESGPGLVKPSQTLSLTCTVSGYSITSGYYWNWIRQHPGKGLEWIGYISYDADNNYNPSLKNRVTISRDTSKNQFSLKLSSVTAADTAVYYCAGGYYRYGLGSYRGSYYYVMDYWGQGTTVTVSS VL: ETVLTQSPATLSVSPGERATISCKASQSVDYEGHSYMNWYQQKPGQAPRLLIYAASNLESGIPARFSGSGSGTDFTLTISSVEPEDAATYYCQQSNEDPPTFGGGTKLEIK	M⁻¹ s⁻¹	300000
mAb3: humanized anti-human ENTPD2 antibody from mAb17; VH SEQ ID NO: 33, VL SEQ ID NO: 29 (antibody, V domains shown) VH: QVQLVQSGAEVVKPGASVKISCKASGYTFTDYNMDWVKQAPGQRLEWIGDINPKYDISTYNQQFKGKATITVDTSASTAYMELSSLRSEDTAVYYCARRGFFLYYGINYYYFDVWGQGTLVTVSS VL: EIVLTQSPATLSASPGERITLSCSASSSVSYIHWYQQKPGQAPRLLIYSTSNLASGIPARFSGSGSGTFYTLTISSVEPEDAAVYYCHQWSSYPWTFGGGTKLEIK	M⁻¹ s⁻¹	130000

Now look at this one.
Enquiry: Quick one: ka of mAb6: humanized anti-human ENTPD2 antibody from mAb16; VH SEQ ID NO: 70, VL SEQ ID NO: 74 (antibody, V domains shown) VH: QVQLQESGPGLVKPSQTLSLTCTVSGYSITSGYYWNWIRQHPGKGLEWMGYISYDADNNYNPSLKNRITISRDTSKNQFSLKLSSVTAADTAVYYCAGGYYRYGLGSYSGSYYYVMDYWGQGTTVTVSS VL: DTQMTQSPSSLSVSVGDRATITCKASQSVDYEGHSYMNWYQQKPGKAPKLLIYAASNLESGVPSRFSGSGSGTDFTLTISSVQPEDFATYYCQQSNEDPPTFGGGTKLEIK ?
Return: 350000
